For each of the binders below, state its Mean fluorescence intensity.
Biological target: T1, monkey LAG-3 (full length, on the cell surface) (monkey, UniProt P18627 24-525 (human entry))
T1 construct: also called HEK293-cLAG-3; monkey LAG-3 protein on the cell surface
T1 chain: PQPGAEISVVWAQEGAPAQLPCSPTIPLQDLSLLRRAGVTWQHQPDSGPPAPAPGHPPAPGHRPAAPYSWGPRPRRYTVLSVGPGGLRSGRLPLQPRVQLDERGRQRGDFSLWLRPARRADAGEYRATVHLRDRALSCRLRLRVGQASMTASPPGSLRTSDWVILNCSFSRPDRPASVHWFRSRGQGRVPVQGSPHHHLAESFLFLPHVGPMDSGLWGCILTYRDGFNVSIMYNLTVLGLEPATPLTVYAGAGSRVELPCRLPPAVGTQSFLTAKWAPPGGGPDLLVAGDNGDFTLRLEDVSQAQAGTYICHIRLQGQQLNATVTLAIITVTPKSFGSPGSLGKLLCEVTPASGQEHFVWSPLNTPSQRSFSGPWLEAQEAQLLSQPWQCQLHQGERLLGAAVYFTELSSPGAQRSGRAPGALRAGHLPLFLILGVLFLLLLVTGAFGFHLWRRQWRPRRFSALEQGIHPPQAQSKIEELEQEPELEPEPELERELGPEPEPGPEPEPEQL
Assay: FACS, HEK293-cLAG-3; 1.600 nM
Numbers only, in MFI.

105F1E10 (mouse antibody purified from hybridoma) (antibody, V domains shown, also called mAb009-105F1E10) VH: EVQLQQSGPELVKPGASVKMSCRASGYTFTDFKMHWMKQSHGKSLEWIGYIAPNNGGTAYNQKFRGKATLTVNESSNTAYMELRSLTSEDSAVYYCVDWDDVDYWGQGTTLTVSS VL: DIKMTQSPSSMYASLGERVTITCKASQDINSYLSWFQQKSGKSPKTLIYRANRLVDGVPSRFSGSGSGQDYSLTISSLEYEDMGIYYCLQYVEFPLTFGAGTKLELK: 15.4
409B11E12 (mouse antibody purified from hybridoma) (antibody, V domains shown, also called mAb104-409B11E12) VH: QVQLQQSGAELVRPGASVTLSCKASGYTFTDYEMHWVKQTTVHGLEWIGATDPETSYSAYNQKFKGKAILTADKSSSTAYMELRSLTSEDSAVYYCIATGWNDWGQGTSLTVSS VL: DLKMTQSPSSMYASLGERVTITCKASQDINSYLSWFQQKPGKSPKTLIYRANRLLDGVPSRFSGSGSGQDYSLTISSLEYEDMGIYYCLQYDEFPYTFGGGTKLEIK: 24.4
556F6B8 (mouse antibody purified from hybridoma) (antibody, V domains shown, also called mAb123-556F6B8) VH: RVQLKQSGPGLVQPSQSLSITCTVSGFSLIKYGVHWVRQSPGEGLEWLGVIWRGGITDYNAAFMSRLSITKDNSKSQVFFKMNSLQADDTAIYYCAKWDGPLAMDYWGQGTSVTVSS VL: DIVMTQSHKFLSTSVGDRVSITCKASQDVGTTVAWYQQKPGQSPKLLIYWASTRHTGVPDRFTGSGSGTDFTLTISNVQSEDLADYFCQQYSSYPYTFGGGTKLEIK: 24.2
409D4E10 (mouse antibody purified from hybridoma) (antibody, V domains shown, also called mAb112-409D4E10) VH: QVQLQQSGAELVRPGASVTLSCKASGNTFTDYEMHWVKQTPVHGLEWIGATDPETDNTAYNQKFKGKAILTTDKSSSTAYMELRSLTSEDSAVYYCITSGWNDWGQGTSLTVSS VL: DIKMTQSPSSMYASLGERVTITCKASQDINSYLSWFQQKPGKSPKTLIYRANRLLDGVPSRFSGSGSGQDYSLTISSLEYEDMGIYYCLQYNEFPYTFGGGTKLEIK: 36.1

Here is the next item to consider.
Sample 405B8H3 (mouse antibody purified from hybridoma) (antibody, V domains shown, also called mAb103-405B8H3; 405B81-13) VH: QVQLQQSGAELVRPGASVTLSCKASGYTFTDYEMHWVKQTPVHGLEWIGATDPETGNSAYNQKFKGKAIMTADKSSSTAYMELRSLTSEDSAVYYCISTGWNDWGQGTSLTVSS VL: DIKMTQSPSSMYASLGERVTITCKASQDINSYLSWFQQKPGKSPKTLIYRADRLLDGVPSRFSGSGSGQDYSLTISSLEYGDMGIYYCLQYDEFPYTFGGGTKLEIK ; Mean fluorescence intensity observed: 23

The values you see were collected from patent US20210155689A1.
